Data origin, for the record: PubChem BioAssay AID1195

Tested on: human maximum recommended daily dose, FDA database
Test Protocol: DSSTox (FDAMDD) FDA Maximum (Recommended) Daily Dose Database
Measurement Conditions: TherapeuticCategory: antibacterial; antirickettsial; stronger effect = lower value
From the text: The Food and Drug Administration (FDA) Center for Drug Evaluation and Research, Office of Pharmaceutical Science, Informatics and Computational Safety Analysis Staff's Maximum Recommended Daily Dose (FDAMDD) database contains values for over 1200 pharmaceuticals listed in Martindale: The Extra Pharmacopoeia (1973, 1983, and 1993) and The Physicians' Desk Reference (1995 and 1999). […]
Measured Endpoint: maximum recommended daily dose (mmol/kg-bw/day)
Give the figure by itself; no unit, no explanation.

Documented maximum recommended daily dose (mmol/kg-bw/day) of O=C(N[C@H](CO)[C@H](O)c1ccc([N+](=O)[O-])cc1)C(Cl)Cl : 0.309

* * *

Test system: human maximum recommended daily dose, FDA database
Test Protocol: DSSTox (FDAMDD) FDA Maximum (Recommended) Daily Dose Database
Measurement Conditions: TherapeuticCategory: bronchodilator; vasodilator; smooth muscle relaxant; stronger effect = lower value
Measured Endpoint: maximum recommended daily dose (mmol/kg-bw/day)

Documented maximum recommended daily dose (mmol/kg-bw/day) of CC(O)Cn1cnc2c1c(=O)n(C)c(=O)n2C (stereo unspecified) : 0.168

* * *

Tested on: human maximum recommended daily dose, FDA database
Test Protocol: DSSTox (FDAMDD) FDA Maximum (Recommended) Daily Dose Database
Measurement Conditions: TherapeuticCategory: antispasmotic; stronger effect = lower value
Measured Endpoint: maximum recommended daily dose (mmol/kg-bw/day)
Give the figure by itself; no unit, no explanation.

Documented maximum recommended daily dose (mmol/kg-bw/day) of CCCC[N+]1(C)[C@@H]2CC(OC(=O)[C@H](CO)c3ccccc3)C[C@H]1[C@@H]1O[C@@H]12 (stereo partly specified) : 0.00302

* * *

Test system: human maximum recommended daily dose, FDA database
Test Protocol: DSSTox (FDAMDD) FDA Maximum (Recommended) Daily Dose Database
Measurement Conditions: TherapeuticCategory: analgesic; antipyretic; antiphlogistic; stronger effect = lower value
Measured Endpoint: maximum recommended daily dose (mmol/kg-bw/day)
Give the figure by itself; no unit, no explanation.

Documented maximum recommended daily dose (mmol/kg-bw/day) of Cc1c(C(C)C)c(=O)n(-c2ccccc2)n1C : 0.13

* * *

Test system: human maximum recommended daily dose, FDA database
Test Protocol: DSSTox (FDAMDD) FDA Maximum (Recommended) Daily Dose Database
Measurement Conditions: TherapeuticCategory: anticholinergic; antiparkinsonian; stronger effect = lower value
Description: The Food and Drug Administration (FDA) Center for Drug Evaluation and Research, Office of Pharmaceutical Science, Informatics and Computational Safety Analysis Staff's Maximum Recommended Daily Dose (FDAMDD) database contains values for over 1200 pharmaceuticals listed in Martindale: The Extra Pharmacopoeia (1973, 1983, and 1993) and The Physicians' Desk Reference (1995 and 1999). […]
Provide the reported maximum recommended daily dose (mmol/kg-bw/day) of each item.
Give the figure by itself; no unit, no explanation.

Documented maximum recommended daily dose (mmol/kg-bw/day) of CCN(CC)CCC1(c2ccccc2)CCC(=O)NC1=O (configuration not stated) : 0.00289

Documented maximum recommended daily dose (mmol/kg-bw/day) of OC(CCN1CCCCC1)(c1ccccc1)C1CCCCC1 (configuration not stated) : 0.000829

* * *

System: human maximum recommended daily dose, FDA database
Test Protocol: DSSTox (FDAMDD) FDA Maximum (Recommended) Daily Dose Database
Measurement Conditions: TherapeuticCategory: cholinergic (acetyl-choline) receptor blockers; stronger effect = lower value
Description: The Food and Drug Administration (FDA) Center for Drug Evaluation and Research, Office of Pharmaceutical Science, Informatics and Computational Safety Analysis Staff's Maximum Recommended Daily Dose (FDAMDD) database contains values for over 1200 pharmaceuticals listed in Martindale: The Extra Pharmacopoeia (1973, 1983, and 1993) and The Physicians' Desk Reference (1995 and 1999). […]
Measured Endpoint: maximum recommended daily dose (mmol/kg-bw/day)

Documented maximum recommended daily dose (mmol/kg-bw/day) of Cc1ccc(O)c([C@H](CCN(C(C)C)C(C)C)c2ccccc2)c1 : 0.0246

* * *

Tested on: human maximum recommended daily dose, FDA database
Test Protocol: DSSTox (FDAMDD) FDA Maximum (Recommended) Daily Dose Database
Measurement Conditions: TherapeuticCategory: gonad stimulating; stronger effect = lower value
From the text: The Food and Drug Administration (FDA) Center for Drug Evaluation and Research, Office of Pharmaceutical Science, Informatics and Computational Safety Analysis Staff's Maximum Recommended Daily Dose (FDAMDD) database contains values for over 1200 pharmaceuticals listed in Martindale: The Extra Pharmacopoeia (1973, 1983, and 1993) and The Physicians' Desk Reference (1995 and 1999). […]
Provide the reported maximum recommended daily dose (mmol/kg-bw/day) of each item.
Give the figure by itself; no unit, no explanation.

Documented maximum recommended daily dose (mmol/kg-bw/day) of CC(=O)Oc1ccc(C(=C2CCCCC2)c2ccc(OC(C)=O)cc2)cc1 : 0.0183

Documented maximum recommended daily dose (mmol/kg-bw/day) of CCN(CC)CCOc1ccc(/C(=C(\Cl)c2ccccc2)c2ccccc2)cc1 : 0.00411

* * *

Test system: human maximum recommended daily dose, FDA database
Test Protocol: DSSTox (FDAMDD) FDA Maximum (Recommended) Daily Dose Database
Measurement Conditions: TherapeuticCategory: cardiotonic; stronger effect = lower value
Excerpt: The Food and Drug Administration (FDA) Center for Drug Evaluation and Research, Office of Pharmaceutical Science, Informatics and Computational Safety Analysis Staff's Maximum Recommended Daily Dose (FDAMDD) database contains values for over 1200 pharmaceuticals listed in Martindale: The Extra Pharmacopoeia (1973, 1983, and 1993) and The Physicians' Desk Reference (1995 and 1999). […]
Measured Endpoint: maximum recommended daily dose (mmol/kg-bw/day)
Give the figure by itself; no unit, no explanation.

Documented maximum recommended daily dose (mmol/kg-bw/day) of CC(=O)O[C@H]1C[C@H](O[C@H]2[C@@H](O)C[C@H](O[C@H]3[C@@H](O)C[C@H](O[C@H]4CC[C@@]5(C)[C@H](CC[C@@H]6[C@@H]5CC[C@]5(C)[C@@H](C7=CC(=O)OC7)CC[C@]65O)C4)O[C@@H]3C)O[C@@H]2C)O[C@H](C)[C@H]1O : 4.13e-06

Documented maximum recommended daily dose (mmol/kg-bw/day) of CC(C)NCC(O)COc1ccc(O)cc1 (centres undefined) : 0.00148

Documented maximum recommended daily dose (mmol/kg-bw/day) of C[C@H]1O[C@@H](O[C@H]2[C@@H](O)C[C@H](O[C@H]3[C@@H](O)C[C@H](O[C@H]4CC[C@@]5(C)[C@H](CC[C@@H]6[C@@H]5CC[C@]5(C)[C@@H](C7=CC(=O)OC7)CC[C@]65O)C4)O[C@@H]3C)O[C@@H]2C)C[C@H](O)[C@@H]1O : 2.61e-08

Documented maximum recommended daily dose (mmol/kg-bw/day) of CNCCc1ccc(OC(=O)C(C)C)c(OC(=O)C(C)C)c1 : 0.0325

Documented maximum recommended daily dose (mmol/kg-bw/day) of Cc1[nH]c(=O)c(C#N)cc1-c1ccncc1 : 0.000237

Documented maximum recommended daily dose (mmol/kg-bw/day) of C[C@H]1O[C@@H](O[C@H]2[C@@H](O)C[C@H](O[C@H]3[C@@H](O)C[C@H](O[C@H]4CC[C@@]5(C)[C@H](CC[C@@H]6[C@@H]5C[C@@H](O)[C@]5(C)[C@@H](C7=CC(=O)OC7)CC[C@]65O)C4)O[C@@H]3C)O[C@@H]2C)C[C@H](O)[C@@H]1O : 1.28e-08

Documented maximum recommended daily dose (mmol/kg-bw/day) of CC(=O)O[C@H]1C[C@H](O[C@H]2[C@@H](O)C[C@H](O[C@H]3[C@@H](O)C[C@H](O[C@H]4CC[C@@]5(C)[C@H](CC[C@@H]6[C@@H]5C[C@@H](O)[C@]5(C)[C@@H](C7=CC(=O)OC7)CC[C@]65O)C4)O[C@@H]3C)O[C@@H]2C)O[C@H](C)[C@H]1O[C@@H]1O[C@H](CO)[C@@H](O)[C@H](O)[C@H]1O : 3.38e-05

Documented maximum recommended daily dose (mmol/kg-bw/day) of CO[C@H]1[C@@H](O)C[C@H](O[C@H]2[C@@H](O)C[C@H](O[C@H]3[C@@H](O)C[C@H](O[C@H]4CC[C@@]5(C)[C@H](CC[C@@H]6[C@@H]5C[C@@H](O)[C@]5(C)[C@@H](C7=CC(=O)OC7)CC[C@]65O)C4)O[C@@H]3C)O[C@@H]2C)O[C@@H]1C : 8.39e-06

Documented maximum recommended daily dose (mmol/kg-bw/day) of CC(=O)O[C@H]1C[C@H](O[C@H]2[C@@H](O)C[C@H](O[C@H]3[C@@H](O)C[C@H](OC4CC[C@@]5(C)C(CC[C@@H]6[C@@H]5C[C@@H](O)[C@]5(C)[C@@H](C7=CC(=O)OC7)[C@@H](O)C[C@]65O)C4)O[C@@H]3C)O[C@@H]2C)O[C@H](C)[C@H]1O[C@@H]1O[C@H](CO)[C@@H](O)[C@H](O)[C@H]1O (some centres undefined) : 3.33e-05
